Assign TGI to each entry below.
# Tested on: OVCAR-5 ovarian
# experiment notes: NCI tumour cell line growth inhibition, 48 h

Task: Give recorded TGI. "Clc1ccc(/C=C/c2csnn2)cc1"
Output: > 100 µM

Task: Look up and report measured TGI for this entry: CCOC(=O)/C=C(/OCC)[C@@H]1C(C(=O)c2ccc(Cl)cc2)[C@@H]1/C(=C\C(=O)OCC)OCC (stereo not given in full)
Output: > 100 µM

Task: State its TGI: "Nc1cccc(C(=O)/C=C/c2ccccc2O)c1"
Output: > 100 µM

Task: Read the entry "CCOC(=O)CSc1nc(-c2ccc(Cl)cc2)c(C#N)c(=O)[nH]1" and write its reported TGI.
Output: > 100 µM

Task: Consider the molecule "Cn1c(COC(=O)NC2CCCCC2)c(COC(=O)NC2CCCCC2)c2ccc3ccccc3c21" . State its measured TGI.
Output: > 100 µM

Task: Please report TGI for the following molecule: "CC(C)(C)OC(=O)N1CCC2(CC1)C(=O)NCN2c1ccccc1"
Output: > 100 µM

Task: Output TGI of O=C(CN1CCCC1)Nc1ccc2c(c1)C1Oc3ccccc3CC1CO2 (stereo not given)
Output: 93.4 µM

Task: Entry "CN1CCC(C(=O)Nc2n[nH]c3nnc(-c4ccccc4)cc23)CC1" needs its TGI filled in; supply it.
Output: > 25 µM

Task: // Input: "COc1cc([N+](=O)[O-])c(S(=O)(=O)O)cc1-[n+]1nc(C(=O)Nc2ccccc2)nn1-c1ccc([N+](=O)[O-])c(S(=O)(=O)[O-])c1" . Output its TGI only.
Output: > 100 µM

Task: Given the molecule "O=c1ccc(=O)c2c1c1[nH]c3ccccc3c1c1c(=O)c3ccccc3c(=O)c21" , write its reported TGI.
Output: > 10 µM

----------
# Tested on: OVCAR-4 ovarian
# experiment notes: NCI tumour cell line growth inhibition, 48 h
For each record, write down the corresponding GI50.

Task: Supply reported GI50 belonging to this compound: "COc1ccccc1CNCCCN1C(=O)c2ccc3c4c(ccc(c24)C1=O)C(=O)N(CCCNCCCCN)C3=O"
Output: 0.165 µM

Task: Give the measured GI50 for "C#CCN(CCCOc1ccc(Cl)cc1Cl)CCCSC(=O)CCCCCN1/C(=C\C=C2/CCCC(/C=C/C3=[N+](CCCCCC(=O)[O-])c4ccccc4C3(C)C)=C2Cl)C(C)(C)c2ccccc21"
Output: 2.02 µM

Task: Output GI50 of "COc1cc(C(=O)Nc2ccc(-c3nc4ccccc4[nH]3)cc2)cc(OC)c1OC"
Output: 11.8 µM

Task: Tell me GI50 reported for "CC(C)(C)OC(=O)CC(S(=O)(=O)c1ccccc1)S(=O)(=O)c1ccccc1"
Output: 1.96 µM

Task: Please supply the value of reported GI50 for the item "Clc1cc(Cl)cc(Nc2ccc3c(OCCCN4CCOCC4)cccc3n2)c1"
Output: 10.3 µM

Task: Tell me its GI50 given CCCCCCC1CCCCN1C(c1ccccc1)C(O)c1ccccc1 (stereo not drawn) as the entry.
Output: 7.98 µM

Task: Tell me its GI50 given "Cc1ncc([N+](=O)[O-])n1CCOc1ccc(C(=O)/C=C/c2ccc(C(F)(F)F)cc2)cc1" as the entry.
Output: 2.99 µM

Task: Report GI50 for CN(Cc1cnc2nc(N)nc(N)c2n1)c1c(Cl)cc(C(=O)NC(CCC(=O)O)C(=O)O)cc1Br (stereo not drawn)
Output: > 100 µM

Task: Name the recorded GI50 of the compound listed here: "Cn1cc(C2=C(c3cccc([N+](=O)[O-])c3)C(=O)NC2=O)c2ccccc21"
Output: 6.06 µM

Task: Assign GI50 to the following record: "COc1cc(/C=C/C(=O)/C=C/c2ccc(-n3ccnc3)cc2)ccc1O"
Output: 8.38 µM

Task: Respond only with GI50 recorded for "COc1ccc(-c2nc3sccn3c2/C=C/C(=O)c2cc(OC)c(OC)c(OC)c2)cc1"
Output: 3.21 µM

Task: Fill in reported GI50 for this entry: Nc1nc2c(ncn2C2OC(CO)C(O)C2O)c(=O)[nH]1 (stereo not drawn)
Output: > 100 µM

Task: Provide only the value of recorded GI50 for "O=C(/C=C/c1ccccn1)c1ccccc1"
Output: 5.06 µM
